Taken from patent US7067518B2.

Listed next: entries and their corresponding melting point.
Counter-ions that a name gives are not always drawn.

>  <Molecule>
CN(C(=O)C1CCCCC1)[C@H](Cc1ccncc1)CN1CCN(c2cccc3c2OCCO3)CC1 (as salt: hydrochloride)

>  <melting point>
167 to 170 °C

$$$$
>  <Molecule>
COc1ccccc1N1CCN(C[C@@H](Cc2cccnc2)NC(=O)C2CCCCC2)CC1 (as salt: maleate)

>  <melting point>
112 to 115 °C

$$$$
>  <Molecule>
COc1ccccc1N1CCN(C[C@@H](Cc2ccccn2)N(C)C(=O)C2(C)CCCCC2)CC1 (as salt: fumarate)

>  <melting point>
145 to 146 °C

$$$$
>  <Molecule>
COc1ccccc1N1CCN(C[C@@H](Cc2ccncc2)NC(=O)C2(C)CCCCC2)CC1 (as salt: fumarate)

>  <melting point>
145 °C

$$$$

###

Assayed Target: human 5-HT1A receptor (Homo sapiens)
Construct: expressed in transfected cells; host or cells: CHO cells (stably transfected)
Sequence (P08908 whole entry): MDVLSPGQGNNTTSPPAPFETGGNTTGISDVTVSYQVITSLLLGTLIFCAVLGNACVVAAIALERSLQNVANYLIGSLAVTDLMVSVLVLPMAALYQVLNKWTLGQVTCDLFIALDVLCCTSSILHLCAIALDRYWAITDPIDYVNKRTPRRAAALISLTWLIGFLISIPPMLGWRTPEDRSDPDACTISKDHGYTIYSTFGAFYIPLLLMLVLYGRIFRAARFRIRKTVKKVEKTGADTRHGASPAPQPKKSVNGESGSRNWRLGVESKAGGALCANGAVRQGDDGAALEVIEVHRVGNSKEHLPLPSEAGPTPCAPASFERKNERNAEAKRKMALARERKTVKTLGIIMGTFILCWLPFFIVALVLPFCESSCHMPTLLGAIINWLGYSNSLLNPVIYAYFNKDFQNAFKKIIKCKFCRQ
Protocol: Antagonist activity: forskolin-stimulated cAMP turnover
Assay type: cell-based
Experimental Parameters: CHO cells stably transfected with the human 5-HT1A receptor, compounds with no agonist activity (Emax=0%)
Listed next: entries and their corresponding log10(IC50).
Quantity Measured: log10(IC50) (log10 of the value in nM)

>  <Compound>
COc1ccccc1N1CCN(C[C@@H](Cc2ccccn2)NC(=O)C2(C)CCCCC2)CC1 [Example 15]

>  <log10(IC50)>
0.65

$$$$
>  <Compound>
COc1ccccc1N1CCN(C[C@@H](Cc2ccccn2)N(C)C(=O)C2(C)CCCCC2)CC1 [Example 18]

>  <log10(IC50)>
2.12

$$$$
>  <Compound>
CN(C(=O)C1CCCCC1)[C@H](Cc1ccncc1)CN1CCN(c2cccc3c2OCCO3)CC1 [Example 25]

>  <log10(IC50)>
2.06

$$$$
>  <Compound>
COc1ccccc1N1CCN(C[C@@H](Cc2ccncc2)NC(=O)C2(C)CCCCC2)CC1 [Example 10]

>  <log10(IC50)>
1.05

$$$$
>  <Compound>
CN(C(=O)C1CCCCC1)[C@H](Cc1cccnc1)CN1CCN(c2cccc3c2OCCO3)CC1 [Example 24]

>  <log10(IC50)>
1.89

$$$$
>  <Compound>
COc1ccccc1N1CCN(C[C@@H](Cc2cccnc2)NC(=O)C2(C)CCCCC2)CC1 [Example 5]

>  <log10(IC50)>
1.12

$$$$

###

Structures can show the parent of a compound that is named as a salt.
Listed next: entries and their corresponding melting point.

>  <Molecule>
COc1ccccc1N1CCN(C[C@@H](Cc2cccnc2)NC(=O)C2(C)CCCCC2)CC1 (as salt: fumarate)

>  <melting point>
150 to 152 °C

$$$$
>  <Molecule>
COc1ccccc1N1CCN(C[C@@H](Cc2ccccn2)NC(=O)C2CCCCC2)CC1 (as salt: fumarate)

>  <melting point>
136 to 141 °C

$$$$
>  <Molecule>
CN(C(=O)C1CCCCC1)[C@H](Cc1cccnc1)CN1CCN(c2cccc3c2OCCO3)CC1 (as salt: hydrochloride)

>  <melting point>
167 to 170 °C

$$$$
>  <Molecule>
CC1(C(=O)N[C@H](Cc2ccncc2)CN2CCN(c3cccc4c3OCCO4)CC2)CCCCC1 (as salt: hydrochloride)

>  <melting point>
188 to 190 °C

$$$$
>  <Molecule>
COc1ccccc1N1CCN(C[C@@H](Cc2ccccn2)NC(=O)C2(C)CCCCC2)CC1 (as salt: fumarate)

>  <melting point>
135 to 139 °C

$$$$
>  <Molecule>
COc1ccccc1N1CCN(C[C@@H](Cc2ccncc2)NC(=O)C2CCCCC2)CC1 (as salt: maleate)

>  <melting point>
145 to 147 °C

$$$$
>  <Molecule>
CC1(C(=O)N[C@H](Cc2cccnc2)CN2CCN(c3cccc4c3OCCO4)CC2)CCCCC1 (as salt: hydrochloride)

>  <melting point>
188 to 190 °C

$$$$

###

Assayed Target: human 5-HT1A receptor (Homo sapiens)
Construct: expressed in transfected cells; host or cells: CHO cells (stably transfected)
Protocol: 5-HT1A affinity: displacement of [3H] 8-OHDPAT
Type: binding
Experimental Parameters: CHO cells stably transfected with the human 5-HT1A receptor
Text: Affinity for the serotonin 5-HT1A receptor was established by assaying the test compound's ability to displace [^3H] 8-OHDPAT from its binding site on the receptor complex in CHO cells stably transfected with the human 5-HT1A receptor following the procedure described by J. Dunlop, Y. Zhang, D. Smith and L. Schechter (Eur. J. Pharmacol., submitted; variation of a procedure described by J. Zgombick et al., Naunyn-Schmiedeberg's Arch. Pharmacol., 354, 226–236 (1996)).
Mark class 1 only for IC50 values smaller than 0.7 nM; exact matches and larger values are class 0.

>  <Compound>
COc1ccccc1N1CCN(C[C@@H](Cc2cccnc2)NC(=O)C2(C)CCCCC2)CC1 [Example 5]

>  <Assayed Target>
human 5-HT1A receptor (Homo sapiens)

>  <Assigned Class>
class 0

$$$$
>  <Compound>
COc1ccccc1N1CCN(C[C@@H](Cc2ccccn2)NC(=O)C2CCCCC2)CC1 [Example 14]

>  <Assayed Target>
human 5-HT1A receptor (Homo sapiens)

>  <Assigned Class>
class 0

$$$$
>  <Compound>
CC1(C(=O)N[C@H](Cc2ccncc2)CN2CCN(c3cccc4c3OCCO4)CC2)CCCCC1 [Example 23]

>  <Assayed Target>
human 5-HT1A receptor (Homo sapiens)

>  <Assigned Class>
class 0

$$$$
>  <Compound>
CN(C(=O)C1CCCCC1)[C@H](Cc1cccnc1)CN1CCN(c2cccc3c2OCCO3)CC1 [Example 24]

>  <Assayed Target>
human 5-HT1A receptor (Homo sapiens)

>  <Assigned Class>
class 0

$$$$
>  <Compound>
COc1ccccc1N1CCN(C[C@@H](Cc2ccccn2)NC(=O)C2(C)CCCCC2)CC1 [Example 15]

>  <Assayed Target>
human 5-HT1A receptor (Homo sapiens)

>  <Assigned Class>
class 0

$$$$
>  <Compound>
CN(C(=O)C1CCCCC1)[C@H](Cc1ccncc1)CN1CCN(c2cccc3c2OCCO3)CC1 [Example 25]

>  <Assayed Target>
human 5-HT1A receptor (Homo sapiens)

>  <Assigned Class>
class 0

$$$$
>  <Compound>
COc1ccccc1N1CCN(C[C@@H](Cc2ccccn2)N(C)C(=O)C2(C)CCCCC2)CC1 [Example 18]

>  <Assayed Target>
human 5-HT1A receptor (Homo sapiens)

>  <Assigned Class>
class 0

$$$$
>  <Compound>
COc1ccccc1N1CCN(C[C@@H](Cc2ccncc2)NC(=O)C2CCCCC2)CC1 [Example 9]

>  <Assayed Target>
human 5-HT1A receptor (Homo sapiens)

>  <Assigned Class>
class 1

$$$$
>  <Compound>
CC1(C(=O)N[C@H](Cc2cccnc2)CN2CCN(c3cccc4c3OCCO4)CC2)CCCCC1 [Example 22]

>  <Assayed Target>
human 5-HT1A receptor (Homo sapiens)

>  <Assigned Class>
class 0

$$$$
>  <Compound>
COc1ccccc1N1CCN(C[C@@H](Cc2cccnc2)NC(=O)C2CCCCC2)CC1 [Example 4]

>  <Assayed Target>
human 5-HT1A receptor (Homo sapiens)

>  <Assigned Class>
class 1

$$$$
